// reported IC50 for each item listed
- target_or_test_system: intracellular GCN2 (phosphorylation of the GCN2 substrate eIF2α) (Homo sapiens, UniProt Q9P2K8)
- Sequence (Q9P2K8 whole entry): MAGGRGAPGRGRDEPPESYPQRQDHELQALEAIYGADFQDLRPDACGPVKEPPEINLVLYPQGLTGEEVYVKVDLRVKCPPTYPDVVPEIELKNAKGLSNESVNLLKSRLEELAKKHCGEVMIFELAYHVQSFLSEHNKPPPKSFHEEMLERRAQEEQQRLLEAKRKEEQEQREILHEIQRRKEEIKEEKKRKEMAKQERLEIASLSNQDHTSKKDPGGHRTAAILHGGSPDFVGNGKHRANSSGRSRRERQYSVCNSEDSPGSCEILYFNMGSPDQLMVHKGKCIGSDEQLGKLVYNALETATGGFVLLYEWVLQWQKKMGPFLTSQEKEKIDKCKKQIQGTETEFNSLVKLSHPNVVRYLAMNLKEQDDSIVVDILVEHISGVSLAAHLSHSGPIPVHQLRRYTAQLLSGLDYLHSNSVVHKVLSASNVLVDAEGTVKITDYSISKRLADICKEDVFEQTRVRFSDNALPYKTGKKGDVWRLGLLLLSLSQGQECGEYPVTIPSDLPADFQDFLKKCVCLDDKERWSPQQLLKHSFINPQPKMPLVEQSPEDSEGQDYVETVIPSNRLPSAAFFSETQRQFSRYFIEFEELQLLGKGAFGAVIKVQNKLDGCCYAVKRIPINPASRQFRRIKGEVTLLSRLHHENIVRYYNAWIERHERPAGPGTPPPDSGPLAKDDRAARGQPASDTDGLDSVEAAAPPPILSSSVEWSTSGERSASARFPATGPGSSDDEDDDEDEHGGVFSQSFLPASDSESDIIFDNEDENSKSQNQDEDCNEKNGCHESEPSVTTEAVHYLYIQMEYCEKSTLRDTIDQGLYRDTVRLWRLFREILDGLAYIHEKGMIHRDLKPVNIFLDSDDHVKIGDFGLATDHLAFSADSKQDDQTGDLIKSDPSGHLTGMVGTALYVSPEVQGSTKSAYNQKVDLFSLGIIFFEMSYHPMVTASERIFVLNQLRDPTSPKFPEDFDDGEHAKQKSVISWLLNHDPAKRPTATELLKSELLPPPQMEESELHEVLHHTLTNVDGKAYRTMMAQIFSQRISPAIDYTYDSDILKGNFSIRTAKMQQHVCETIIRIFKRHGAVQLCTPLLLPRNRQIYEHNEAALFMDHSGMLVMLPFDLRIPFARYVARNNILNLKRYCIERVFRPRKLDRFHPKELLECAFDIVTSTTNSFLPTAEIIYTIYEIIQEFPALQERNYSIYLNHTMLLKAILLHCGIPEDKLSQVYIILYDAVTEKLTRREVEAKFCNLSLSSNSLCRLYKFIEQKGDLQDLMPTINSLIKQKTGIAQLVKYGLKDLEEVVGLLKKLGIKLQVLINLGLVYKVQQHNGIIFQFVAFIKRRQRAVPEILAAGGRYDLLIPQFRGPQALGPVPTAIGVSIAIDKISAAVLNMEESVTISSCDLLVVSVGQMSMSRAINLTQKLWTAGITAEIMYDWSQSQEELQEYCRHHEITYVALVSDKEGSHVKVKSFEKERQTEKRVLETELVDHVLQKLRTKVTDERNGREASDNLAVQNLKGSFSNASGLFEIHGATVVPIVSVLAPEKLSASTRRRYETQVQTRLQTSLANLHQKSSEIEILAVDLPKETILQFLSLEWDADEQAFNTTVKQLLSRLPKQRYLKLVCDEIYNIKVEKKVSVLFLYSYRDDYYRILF
- measurement_protocol: GCN2 cellular inhibition assay (AlphaScreen SureFire P-eIF2α Ser51, borrelidin-treated U2OS cells)
- Assay type: cell-based
- condition_context: compounds of Formula II; biomarker assay, phosphorylated eIF2α Ser51 in borrelidin-treated U2OS cells

Some compounds with known IC50 results, for comparison:
compound: C[C@H]1[C@@H](CNS(C)(=O)=O)C(F)(F)[C@@H](C)CN1c1cc(-c2cnc3ccc(C(F)F)nn23)ncn1 (single isomer, unassigned)
reported_property: IC50
result: < 0.5 µM
--
compound: CC(=O)N1CCN(c2cncc(-c3cnc4ccc(C(F)F)nn34)c2)CC1
reported_property: IC50
result: 0.5 to 5 µM
--
compound: FC(F)c1ccc2ncc(-c3cc(C4CCCN(C5COC5)C4)ncn3)n2n1 (stereo not drawn) [II-180]
reported_property: IC50
result: > 5 µM

Briefly, IC50 measured for O=C1CCN(c2cc(-c3cnc4ccc(Cl)nn34)ccn2)CCN1 : > 5 µM

Recorded result, CC1CC(P(C)(C)=O)CN(c2cc(-c3cnc4ccc(C(F)F)nn34)ncn2)C1 (stereo not drawn) [II-711] , IC50: 0.5 to 5 µM

get_value(item= CC1CN(c2cc(-c3cnc4ccc(C(F)(F)F)nn34)ncn2)C(C)C(c2cn[nH]c2)N1 (stereo not drawn) [II-698] , readout=IC50) returns 0.5 to 5 µM

Note to self: IC50 recorded for Cc1[nH]ncc1[C@H]1CN(c2cc(-c3cnc4ccc(C(F)(F)F)nn34)ncn2)C[C@@H](C)O1 was < 0.5 µM

Reported IC50 for NS(=O)(=O)N1CC2CCN(c3cc(-c4cnc5ccc(C(F)F)nn45)ncn3)C2C1 (stereo not drawn) was > 5 µM

Lab note: CC1CN(c2cc(-c3cnc4ccc(C(F)F)nn34)ncn2)CC(CNS(C)(=O)=O)C12OCCO2 (stereo not drawn) gave IC50 of < 0.5 µM

CC1C(CNS(N)(=O)=O)CCCN1c1cc(-c2cnc3ccc(C(F)F)nn23)ncn1 (stereo not drawn) yielded IC50 of 0.5 to 5 µM

What the record says about CS(=O)(=O)N1CCC12CCCN(c1cc(-c3cnc4ccc(C(F)F)nn34)ncn1)C2 (stereo not drawn) : IC50 is > 5 µM

Measured IC50, CS(=O)(=O)N1CCCC(c2cc(-c3cnc4ccc(C(F)F)nn34)ncn2)C1 (stereo not drawn) : > 5 µM

Per the record, CC1CN(c2cc(-c3cnc4ccc(C(F)(F)F)nn34)ncn2)C(C)C(c2cn[nH]c2)N1 (stereo not drawn) [II-705] has IC50 of < 0.5 µM

get_value(item= CS(=O)(=O)NCC1CCCN(c2cc(-c3cnc4ccc(C(F)F)nn34)cc(N3CCOCC3)n2)C1 (stereo not drawn) , readout=IC50) returns 0.5 to 5 µM

Entry CS(=O)(=O)NCC1CN(c2cc(-c3cnc4cccnn34)ccn2)CCO1 (stereo not drawn) , IC50 reported as > 5 µM

For this compound ( OC[C@@H]1CN(c2cc(-c3cnc4ccc(C(F)F)nn34)ncn2)CCO1 ), measured IC50 is 0.5 to 5 µM

Lookup result for C[C@H]1[C@@H](CNS(C)(=O)=O)N(C2CC2)CCN1c1cc(-c2cnc3ccc(C(F)F)nn23)ncn1 ; measured IC50: < 0.5 µM

The compound listed as O=C(NCCO)C1CCCN(c2cc(-c3cnc4ccc(C(F)F)nn34)ncn2)C1 (stereo not drawn) has a reported IC50 of > 5 µM

The reported value for CS(C)(=O)=NC1CCCN(c2cc(-c3cnc4ccc(C(F)(F)F)nn34)ncn2)C1 (stereo not drawn) in terms of IC50 is > 5 µM

// IC50 value for NC(=O)C1CN(c2cc(-c3cnc4ccc(C(F)F)nn34)ncn2)CCO1 (stereo not drawn) : 0.5 to 5 µM

What the record says about OC1CCN(CCC2CCN(c3cc(-c4cnc5ccc(C(F)F)nn45)ncn3)CC2)C1 (stereo not drawn) : IC50 is > 5 µM

Consider CC1(C)COC(CNS(C)(=O)=O)CN1c1cc(-c2cnc3ccc(C(F)F)nn23)ncn1 (stereo not drawn) . Its measured IC50 is 0.5 to 5 µM

Sample NCC1CCN(c2cc(-c3cnc4ccc(C(F)F)nn34)ncn2)C1 (stereo not drawn) ; IC50 observed: > 5 µM

Kindly note the recorded IC50 for C[C@@H]1CN(c2cc(-c3cnc4ccc(C(F)F)nn34)ncn2)CC(C(N)=O)O1 (stereo partly drawn) , which is > 5 µM

// IC50 value for C[C@H]1[C@@H](CO)CCCN1c1cc(-c2cnc3ccc(C(F)F)nn23)ncn1 (single isomer, unassigned) : 0.5 to 5 µM

Origin of values: patent US10988477B2
